# experiment: Drug concentration in brain of Sprague-Dawley rat at 1 mg/kg, po
# Format: ADME, organism-based
# conditions used: in vivo, read-out: Ct
measured parameter: concentration
Include the unit after the number when you answer.

Input O=C(c1ccc2c(ccn2-c2ccc(F)cc2)c1)N1CC(N2CCN(C(=O)c3nccs3)CC2)C1 . Output concentration: 142 nM

---

# experiment: Cmax in monkey at 10 mg/kg, po
# Type: ADME, organism-based, Macaca mulatta
# Design: dose 10 mg/kg, route oral
# conditions used: rhesus monkey, in vivo
measured parameter: Cmax (ng/mL)
Write the value in ng/mL as a bare number.

Input O=C(c1ccc2c(ccn2-c2ccc(F)cc2)c1)N1CC(N2CCN(C(=O)c3nccs3)CC2)C1 . Output Cmax: 5300

---

# system name: Fatty-acid amide hydrolase 1 (Homo sapiens, UniProt O00519)
# Sequence (O00519 whole entry): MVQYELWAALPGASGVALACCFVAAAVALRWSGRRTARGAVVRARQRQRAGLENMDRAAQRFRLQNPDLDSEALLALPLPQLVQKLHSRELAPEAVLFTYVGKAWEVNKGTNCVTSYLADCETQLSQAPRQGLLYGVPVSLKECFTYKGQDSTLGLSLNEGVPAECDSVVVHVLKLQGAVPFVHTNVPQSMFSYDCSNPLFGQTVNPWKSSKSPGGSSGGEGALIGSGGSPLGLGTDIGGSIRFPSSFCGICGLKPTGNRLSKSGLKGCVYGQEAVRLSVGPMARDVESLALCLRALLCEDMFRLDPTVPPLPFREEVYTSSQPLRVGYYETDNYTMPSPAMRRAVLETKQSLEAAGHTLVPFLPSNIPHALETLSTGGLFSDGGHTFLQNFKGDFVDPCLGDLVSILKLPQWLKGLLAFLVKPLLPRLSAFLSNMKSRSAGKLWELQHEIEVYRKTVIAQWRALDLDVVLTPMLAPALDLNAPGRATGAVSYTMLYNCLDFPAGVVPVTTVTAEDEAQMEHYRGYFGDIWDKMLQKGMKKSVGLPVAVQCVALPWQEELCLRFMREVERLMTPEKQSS
measured parameter: pIC50
Kindly note that pIC50 refers to -log10 of the concentration in mol/L and answer with the value alone.

Let me check: O=C(c1ccc2c(ccn2-c2ccc(F)cc2)c1)N1CC(N2CCN(C(=O)c3nccs3)CC2)C1 , system Fatty-acid amide hydrolase 1 (Homo sapiens, UniProt O00519), measured pIC50 is 5.40

---

# experiment: Half life in monkey at 10 mg/kg, po
# Format: ADME, organism-based, Macaca mulatta
# conditions used: rhesus monkey, in vivo
measured parameter: half-life (h)
Write the value in h as a bare number.

Input O=C(c1ccc2c(ccn2-c2ccc(F)cc2)c1)N1CC(N2CCN(C(=O)c3nccs3)CC2)C1 . Output half-life: 4.62

---

# experiment: Half life in rat at 10 mg/kg, po
# Assay type: ADME, organism-based
# conditions used: in vivo
measured parameter: half-life (h)
Write the value in h as a bare number.

Input O=C(c1ccc2c(ccn2-c2ccc(F)cc2)c1)N1CC(N2CCN(C(=O)c3nccs3)CC2)C1 . Output half-life: 6.82

---

# experiment: AUClast in monkey at 10 mg/kg, po
# Format: ADME, organism-based, Macaca mulatta
# Design: dose 10 mg/kg, time 0 - last, route oral
# conditions used: rhesus monkey, in vivo
measured parameter: AUC(0-t) (µg·h/mL)
Write the value in µg·h/mL as a bare number.

Input O=C(c1ccc2c(ccn2-c2ccc(F)cc2)c1)N1CC(N2CCN(C(=O)c3nccs3)CC2)C1 . Output AUC(0-t): 33.5

---

# experiment: Cmax in rat at 10 mg/kg, po
# Format: ADME, organism-based
# Design: dose 10 mg/kg, route oral
# conditions used: in vivo
measured parameter: Cmax (ng/mL)
Write the value in ng/mL as a bare number.

Input O=C(c1ccc2c(ccn2-c2ccc(F)cc2)c1)N1CC(N2CCN(C(=O)c3nccs3)CC2)C1 . Output Cmax: 710
